tgt: T1, PARP4 BRCT-WGR-CAT (Homo sapiens, UniProt Q9UKK3 1-573)
T1 sequence: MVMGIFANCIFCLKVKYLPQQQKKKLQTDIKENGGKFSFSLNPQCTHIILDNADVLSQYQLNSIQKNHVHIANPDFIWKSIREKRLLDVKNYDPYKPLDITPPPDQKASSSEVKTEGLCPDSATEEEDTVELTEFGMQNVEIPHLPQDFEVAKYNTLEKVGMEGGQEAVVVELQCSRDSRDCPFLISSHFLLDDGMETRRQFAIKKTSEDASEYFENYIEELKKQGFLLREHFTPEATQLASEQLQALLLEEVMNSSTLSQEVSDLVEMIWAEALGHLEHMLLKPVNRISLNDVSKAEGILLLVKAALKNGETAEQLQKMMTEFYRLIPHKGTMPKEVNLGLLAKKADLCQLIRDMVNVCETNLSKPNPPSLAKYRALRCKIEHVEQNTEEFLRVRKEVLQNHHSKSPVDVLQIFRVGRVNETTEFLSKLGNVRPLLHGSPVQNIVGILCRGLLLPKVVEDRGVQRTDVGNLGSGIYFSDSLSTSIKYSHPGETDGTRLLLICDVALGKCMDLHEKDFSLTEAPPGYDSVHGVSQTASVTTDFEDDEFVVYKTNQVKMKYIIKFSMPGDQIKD
method_description: fluorescence polarization; 30 nM RNA; apparent Kd; FP: 50 mM Tris pH 7.5, 50 mM NaCl, 0.05% NP40, 2 mM DTT, 5% glycerol, room temperature 30 min; EMSA: same but 20% glycerol, 100 nM nucleic acid, room temperature 30 min, gel at 4 C in Tris-glycine
particulars: protein: recombinant; tags: N-terminal His-SUMO tag, cleaved with TEV; label: 5'-6-FAM; Mfold secondary structure, annealed
attribute_measured: Kd (µM)
A number alone suffices; assume µM.

Record vtRNA1-2 (structured_RNA) RNA: GGCUGGCUUUAGCUCAGCGGUUACUUCGAGUACAUUGUAACCACCUCUCUGGGUGGUUCGAGACCCGCGGGUGCUUUCCAGCUCUUUU . Reported Kd: 15
